Molecular target: T1, human glucagon-like peptide-2 receptor (human, UniProt O95838 1-553)
T1 sequence (looked up): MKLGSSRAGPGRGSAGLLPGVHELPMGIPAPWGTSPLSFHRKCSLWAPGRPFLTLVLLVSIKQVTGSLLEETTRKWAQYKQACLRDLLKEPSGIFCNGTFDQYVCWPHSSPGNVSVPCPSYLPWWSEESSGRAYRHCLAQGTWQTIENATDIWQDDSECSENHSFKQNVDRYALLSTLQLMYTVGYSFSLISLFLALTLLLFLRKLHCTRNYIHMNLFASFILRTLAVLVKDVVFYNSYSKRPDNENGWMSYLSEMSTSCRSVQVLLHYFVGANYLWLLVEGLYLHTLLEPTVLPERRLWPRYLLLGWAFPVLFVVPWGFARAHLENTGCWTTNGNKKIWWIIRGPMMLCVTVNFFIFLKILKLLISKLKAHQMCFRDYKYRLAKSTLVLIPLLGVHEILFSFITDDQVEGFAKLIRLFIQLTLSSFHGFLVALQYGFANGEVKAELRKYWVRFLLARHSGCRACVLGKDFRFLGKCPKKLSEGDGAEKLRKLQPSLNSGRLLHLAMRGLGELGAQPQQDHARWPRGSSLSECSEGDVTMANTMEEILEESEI
Test: cell-based or functional assay
Where no end group is shown, it is not given here. [ ]: non-standard residue; d: D form. The star is where a group is joined. C16 diacid = O=C(O)CCCCCCCCCCCCCCC(=O)*; Palmitoyl = CCCCCCCCCCCCCCCC(=O)*; Aib = CC(C)(N)C(=O)O
MEASUREMENT NAME: Efficacy GLP-2R (%)

* {C16 diacid}-H[Aib]DGTFISDYST[Aib]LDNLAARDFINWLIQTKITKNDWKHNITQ-OH [Compound no. 40] | 96
* {C16 diacid}-HADGTFISDYST[Aib]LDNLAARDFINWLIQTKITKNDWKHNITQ [Compound no. 39] | 78
* Palmitoyl-HADGTFISDYSTILDNLAARDFINWLIQTKIT [Compound no. 2] | 59
* {C16 diacid}-H[Aib]EGTFISDYST[Aib]LDNLAAKDFINWLIQTKITKNDWKHNITQ-OH [Compound no. 43] | 73
* Palmitoyl-HADGTFISDYSTILDNLAARDFINWLLAQKITK [Compound no. 46] | 82
* HXDGTFISDYKTILDNLAARDFINWLIQTKITK (Aib at 2; K(γGlu-C16) at 11; C-terminal -OH) [Compound no. 11] | 87
* {C16 diacid}-H[Aib]EGTFISDYST[Aib]LDALAARDFINWLIQTKITKNDWKHNITQ-OH [Compound no. 41] | 74
